molecular target: Coagulation factor VII/tissue factor (Homo sapiens); test: Binding affinity for factor VIIa/TF
Sequence (P08709 61-212 limits assumed): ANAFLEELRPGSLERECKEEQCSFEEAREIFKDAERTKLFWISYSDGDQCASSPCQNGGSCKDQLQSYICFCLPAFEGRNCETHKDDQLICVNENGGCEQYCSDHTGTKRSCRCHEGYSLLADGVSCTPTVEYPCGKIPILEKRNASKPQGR
Sequence (P08709 213-466 limits assumed): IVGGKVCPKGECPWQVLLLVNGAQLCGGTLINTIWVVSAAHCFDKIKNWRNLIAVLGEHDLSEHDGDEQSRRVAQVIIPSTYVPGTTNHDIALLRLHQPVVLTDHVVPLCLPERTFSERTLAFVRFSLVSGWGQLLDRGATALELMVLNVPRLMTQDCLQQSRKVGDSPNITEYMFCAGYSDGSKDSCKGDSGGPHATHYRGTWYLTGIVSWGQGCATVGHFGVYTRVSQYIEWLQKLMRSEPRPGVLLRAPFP
Sequence (P13726 33-295 partner limits assumed): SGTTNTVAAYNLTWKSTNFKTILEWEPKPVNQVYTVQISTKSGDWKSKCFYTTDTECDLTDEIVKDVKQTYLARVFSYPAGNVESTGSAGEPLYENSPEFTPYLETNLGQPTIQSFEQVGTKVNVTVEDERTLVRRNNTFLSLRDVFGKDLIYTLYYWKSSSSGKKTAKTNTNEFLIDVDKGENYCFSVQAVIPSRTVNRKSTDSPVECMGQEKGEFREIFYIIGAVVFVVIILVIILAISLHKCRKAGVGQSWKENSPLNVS
pKi: −log10 of the molar value.
test_readout: pKi

• N=C(N)c1ccc2[nH]c(-c3cc(CC(=O)O)cc(-c4cccc(C(=O)O)c4)c3O)cc2c1 = 6.49
• N=C(N)c1ccc2[nH]c(-c3cc(CCC(=O)O)cc(-c4cccc([N+](=O)[O-])c4)c3O)cc2c1 = 7.57
• N=C(N)c1cccc(-c2cc(CC(=O)O)cc(-c3cc4cc(C(=N)N)ccc4[nH]3)c2O)c1 = 6.37
• N=C(N)c1ccc2nc(-c3cc(Cl)cc(-c4cccc(N)c4)c3O)[nH]c2c1 = 7.11

(a) N=C(N)c1ccc2[nH]c(-c3cc(CC(=O)O)cc(-c4cccc(-c5nnn[nH]5)c4)c3O)cc2c1
(b) N=C(N)c1ccc2[nH]c(-c3cc(CC(=O)O)cc(-c4cccc(OP(=O)(O)O)c4)c3O)cc2c1
(c) N=C(N)c1ccc2[nH]c(-c3cc(CC(=O)O)cc(-c4cccc([N+](=O)[O-])c4)c3O)cc2c1
(d) N=C(N)c1ccc2[nH]c(-c3cc(CC(=O)O)cc(-c4ccccc4)c3O)cc2c1
List the 4 entries from lowest pKi to highest pKi value. # list labels per requested ordering
b, a, d, c
(b: 6.02, a: 6.32, d: 7.39, c: 8.52)
